Experiment: Test for identification of mu-amines compatible with hydroquinone (Example 6)
Type: physicochemical
Parameters: key: An asterisk (*) in a column indicates a positive result
Conditions: 10 g amine, 10 g hydroquinone, 80 g water; precipitation after 3 min stirring
measurement-kind: Step 4: Not mu-Amine

Answered cases to consult:
compound	measurement-kind	result
NC1CCCCC1 [Cyclohexylamine, reference compound]	Step 4: Not mu-Amine	*
C1CN2CCN1CC2 [Triethylenediamine, reference compound]	Step 4: Not mu-Amine	*
NCCCCCCN [Hexamethylenediamine, reference compound]	Step 4: Not mu-Amine	*
C1COCCN1 [Morpholine, reference compound]	Step 4: Not mu-Amine	*

// next entry
## Input Please indicate Step 4: Not mu-Amine recorded for CC(C)(C)N [tert-Butylamine, reference compound]
## Output *
